Biological target: CXCR3 (Macaca fascicularis, UniProt A0A2K5UV19)
Sequence (A0A2K5UV19 entry or part of it): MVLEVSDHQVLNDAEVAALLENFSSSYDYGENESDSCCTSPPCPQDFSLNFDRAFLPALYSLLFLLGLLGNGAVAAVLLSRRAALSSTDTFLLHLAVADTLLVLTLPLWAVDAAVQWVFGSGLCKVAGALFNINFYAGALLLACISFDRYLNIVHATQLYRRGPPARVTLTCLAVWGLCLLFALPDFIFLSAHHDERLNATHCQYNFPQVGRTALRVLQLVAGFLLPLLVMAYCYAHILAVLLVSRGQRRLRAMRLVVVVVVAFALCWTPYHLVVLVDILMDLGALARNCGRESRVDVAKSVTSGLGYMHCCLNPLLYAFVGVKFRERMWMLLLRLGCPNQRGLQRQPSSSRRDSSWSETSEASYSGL
Assay: functional cellular assay measuring calcium flux in CXCR3 transfected cells (block of CXCR3/IP-10 interaction)
Format: cell-based, Cyno
Details: IP-10 induced intracellular calcium flux; Cyno-CHO cells stably expressing recombinant CXCR3 and G-alpha-16; IP-10 at EC80; read-out: IC50
Method: Compounds are assessed for the ability to block the interaction of CXCR3 and IP-10 in a functional cellular assay measuring calcium flux in CXCR3 transfected cells. […] Test compounds are dissolved in DMSO and diluted to 1.045 mM in DMSO. […] Intracellular calcium flux is recorded on the HAMAMTSU FDSS6000, using excitation at 480 nm and emission at 540 nm. Data are analyzed using Activity Base software. […]
recorded_metric: log10(IC50) (log10 of the value in µM)

{"compound": "Cc1cc(C)n(CC(=O)N2CCN(c3ccc(C(F)(F)F)cc3-c3cnc(N4CCOCC4)nc3)CC2)n1", "log10(IC50)": -2.10}
{"compound": "C[C@H]1CN(c2ccc(F)cc2C(=O)Nc2nc3c(s2)CN(C)CC3)CCN1C(=O)CN1CCCCC1=O", "log10(IC50)": -1.77}
{"compound": "Cc1cc(C)n(CC(=O)N2CCN(c3ccccc3-c3ccc4cc[nH]c4c3)CC2)n1", "log10(IC50)": -1.09}
{"compound": "CSc1ncc(-c2cc(C#N)ccc2N2CCN(C(=O)Cn3nc(C)cc3C)CC2)cn1", "log10(IC50)": -1.44}
{"compound": "CC1CN(c2ccc(F)cc2-c2cnc(S(C)(=O)=O)nc2)CCN1C(=O)Cn1ccc2cccnc21 (stereo not shown)", "log10(IC50)": -1.32}
{"compound": "C[C@@H]1CN(c2ccc(F)cc2C(=O)Nc2nc3c(s2)CN(C)CC3)CCN1C(=O)Cn1c(=O)[nH]c2ccccc21", "log10(IC50)": -1.74}
{"compound": "CS(=O)(=O)C1CCN(c2ncc(-c3cc(F)ccc3N3CCN(C(=O)CN4CCCCC4=O)CC3)cn2)CC1", "log10(IC50)": -1.82}
{"compound": "O=C(Cn1c(=O)[nH]c2ccccc21)N1CCN(c2ccccc2-c2cnc(N3CCOCC3)nc2)CC1", "log10(IC50)": -2.00}
{"compound": "O=C(CN1Cc2ccccc2C1=O)N1CCN(c2ccc(F)cc2-c2cnc(N3CCCC3)nc2)CC1", "log10(IC50)": -1.82}
{"compound": "C[C@@H]1CN(c2ncc(-c3ccccc3N3CCN(C(=O)Cn4ccc5cccnc54)CC3)cn2)C[C@H](C)O1", "log10(IC50)": -2.00}
{"compound": "CCNc1ncc(-c2ccccc2N2CCN(C(=O)Cn3nc(C)cc3C)CC2)cn1", "log10(IC50)": -2.00}
{"compound": "COc1ncc(-c2ccccc2N2CCN(C(=O)Cn3ncc4ccccc43)CC2)cn1", "log10(IC50)": -1.46}
{"compound": "O=C(Cn1ccc2cccnc21)N1CCN(c2c(F)cccc2-c2cnc(N3CCOCC3)nc2)CC1", "log10(IC50)": -1.57}
{"compound": "COc1ncc(-c2ccccc2N2CCN(C(=O)Cn3cc4ccccc4n3)CC2)cn1", "log10(IC50)": -1.55}
{"compound": "COC[C@@H]1CCCN1c1ncc(-c2ccccc2N2CCN(C(=O)Cn3nc(C)cc3C)CC2)cn1", "log10(IC50)": -1.92}
{"compound": "Cc1cc(C)n(CC(=O)N2CCN(c3ccc(F)cc3-c3cnc(N4CCOCC4)nc3)CC2)n1", "log10(IC50)": -2.30}
{"compound": "CC1CN(c2ccc(C(F)(F)F)cc2-c2cnc(N3CCC(O)CC3)nc2)CCN1C(=O)CN1Cc2ccccc2C1=O (stereo not shown)", "log10(IC50)": -2.05}
{"compound": "O=C(Cn1ccc2cccnc21)N1CCN(c2ccc(F)cc2-c2cnc(N3CCOCC3)nc2)CC1", "log10(IC50)": -1.85}
{"compound": "O=C(Cn1ccc2cccnc21)N1CCN(c2ccccc2-c2cnc(N3CCOCC3)nc2)CC1", "log10(IC50)": -2.22}
{"compound": "COc1cc(NC(=O)c2cc(F)ccc2N2CCN(C(=O)CN3Cc4ccccc4C3=O)[C@@H](C)C2)ccn1", "log10(IC50)": -1.89}
{"compound": "CC1CN(c2ccc(F)cc2-c2cnc(N3CCC(S(C)(=O)=O)CC3)nc2)CCN1C(=O)Cn1ccc2cccnc21 (stereo not shown)", "log10(IC50)": -2.10}
{"compound": "COc1ncc(-c2ccccc2N2CCN(C(=O)Cn3ccc4ccncc43)CC2)cn1", "log10(IC50)": -2.05}
{"compound": "CS(=O)(=O)c1ncc(-c2cc(F)ccc2N2CCN(C(=O)Cn3ccc4cccnc43)CC2)cn1", "log10(IC50)": -1.17}
{"compound": "COc1ncc(-c2cc(F)ccc2N2CCN(C(=O)Cn3ccc4ccncc43)CC2)cn1", "log10(IC50)": -1.89}
{"compound": "COc1cc(NC(=O)c2cc(F)ccc2N2CCN(C(=O)Cn3cnc4cccnc43)[C@H](C)C2)ccn1", "log10(IC50)": -2.15}
{"compound": "COc1ccc(-c2ccccc2N2CCN(C(=O)Cn3ccc4cccnc43)CC2)cn1", "log10(IC50)": -1.47}
{"compound": "C[C@@H]1CN(c2ccc(F)cc2C(=O)Nc2nc3c(s2)CN(C)CC3)CCN1C(=O)CN1Cc2ccccc2C1=O", "log10(IC50)": -1.82}
{"compound": "N#Cc1ccc(-c2ccccc2N2CCN(C(=O)CNc3nccs3)CC2)cn1", "log10(IC50)": -1.33}
